These measurements were taken from patent US20090232838A1.

The entries below are paired with their reported Kb.
target.desc: hMC3-R (Homo sapiens)
Construct: expressed in transfected cells; host or cells: CHO-K1
Sequence (P41968 whole entry): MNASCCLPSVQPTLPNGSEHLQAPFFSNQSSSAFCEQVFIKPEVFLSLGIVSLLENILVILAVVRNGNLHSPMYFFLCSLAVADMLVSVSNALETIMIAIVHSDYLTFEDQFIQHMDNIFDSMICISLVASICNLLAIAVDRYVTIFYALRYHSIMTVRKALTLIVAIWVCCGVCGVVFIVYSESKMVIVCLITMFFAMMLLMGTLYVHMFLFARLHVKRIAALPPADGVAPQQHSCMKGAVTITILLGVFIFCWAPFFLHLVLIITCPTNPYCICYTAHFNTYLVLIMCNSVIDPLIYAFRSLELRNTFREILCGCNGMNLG
assay.overview: cyclic AMP bioassay, hMC3-R
Format: cell-based
Where a SMILES comes first, the peptide text is derived from it. Bridges are numbered along the chain shown (N, C = ends). [ ]: non-standard residue; d: D form. 1Nal = N[C@@H](Cc1cccc2ccccc12)C(=O)O; 2Nal = N[C@@H](Cc1ccc2ccccc2c1)C(=O)O; d2Nal = N[C@H](Cc1ccc2ccccc2c1)C(=O)O; Bta = N[C@@H](Cc1csc2ccccc12)C(=O)O; Aib = CC(C)(N)C(=O)O
The reply should contain only the number, in nM.

Would you please look over these solved cases?
molecule | experimental.readout | unit.of.measurement | reported.measurement
CC(=O)N[C@H]1CSSC[C@@H](C(=O)N2CCC[C@H]2C(=O)N2CCC[C@H]2C(=O)N[C@@H](CCCCN)C(=O)N[C@@H](CC(=O)O)C(N)=O)NC(=O)[C@H](C)NC(=O)[C@H](Cc2cccc3ccccc23)NC(=O)[C@H](CCCNC(=N)N)NC(=O)[C@@H](Cc2ccc3ccccc3c2)NC(=O)[C@H](Cc2c[nH]cn2)NC(=O)[C@H](CCC(=O)O)NC1=O (Ac-CEH[d2Nal]R[1Nal]ACPPKD-NH2; disulfide 1-8) | Kb | nM | 105
CC(=O)N[C@H]1CSSC[C@@H](C(=O)N2CCC[C@H]2C(=O)N2CCC[C@H]2C(=O)N[C@@H](CCCCN)C(=O)N[C@@H](CC(=O)O)C(N)=O)NC(=O)[C@H](C)NC(=O)[C@H](Cc2ccc3ccccc3c2)NC(=O)[C@H](CCCNC(=N)N)NC(=O)[C@@H](Cc2ccc3ccccc3c2)NC(=O)[C@H](Cc2c[nH]cn2)NC(=O)[C@H](CCC(=O)O)NC1=O (Ac-CEH[d2Nal]R[2Nal]ACPPKD-NH2; disulfide 1-8) | Kb | nM | 140
CC(=O)N[C@H]1CSSC[C@@H](C(=O)N2CCC[C@H]2C(=O)N2CCC[C@H]2C(=O)N[C@@H](CCCCN)C(=O)N[C@@H](CC(=O)O)C(N)=O)NC(=O)C(C)(C)NC(=O)[C@H](Cc2ccc3ccccc3c2)NC(=O)[C@H](CCCNC(=N)N)NC(=O)[C@@H](Cc2ccc3ccccc3c2)NC(=O)[C@H](Cc2c[nH]cn2)NC(=O)[C@H](CCC(=O)O)NC1=O (Ac-CEH[d2Nal]R[2Nal][Aib]CPPKD-NH2; disulfide 1-8) | Kb | nM | 221

Switching to the query record.
The reported value for CC(=O)N[C@H]1CSSC[C@@H](C(=O)N2CCC[C@H]2C(=O)N2CCC[C@H]2C(=O)N[C@@H](CCCCN)C(=O)N[C@@H](CC(=O)O)C(N)=O)NC(=O)[C@H](C)NC(=O)[C@H](Cc2csc3ccccc23)NC(=O)[C@H](CCCNC(=N)N)NC(=O)[C@@H](Cc2ccc3ccccc3c2)NC(=O)[C@H](Cc2c[nH]cn2)NC(=O)[C@H](CCC(=O)O)NC1=O (Ac-CEH[d2Nal]R[Bta]ACPPKD-NH2; disulfide 1-8) in terms of Kb is 70.7

* * *

In this section, each of the compounds is paired with its reported EC50.
target.desc: hMC1-R (Homo sapiens)
Construct: expressed in transfected cells; host or cells: CHO-K1
Sequence (Q01726 whole entry): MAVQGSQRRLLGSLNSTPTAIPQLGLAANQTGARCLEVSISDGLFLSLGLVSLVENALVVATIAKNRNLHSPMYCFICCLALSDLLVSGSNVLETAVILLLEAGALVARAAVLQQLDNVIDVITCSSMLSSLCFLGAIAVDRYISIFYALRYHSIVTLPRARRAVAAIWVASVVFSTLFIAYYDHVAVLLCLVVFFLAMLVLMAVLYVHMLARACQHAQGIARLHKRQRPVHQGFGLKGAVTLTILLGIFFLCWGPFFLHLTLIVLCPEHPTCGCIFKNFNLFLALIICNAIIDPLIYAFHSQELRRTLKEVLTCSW
assay.overview: cyclic AMP bioassay, hMC1-R
Format: cell-based
Quick reminder: number only, in nM, skip the unit.

smi | target.desc | unit.of.measurement | reported.measurement
CCCC[C@H](NC(C)=O)C(=O)N[C@H]1CSSC[C@@H](C(=O)NCCC(=O)NCC(=O)N[C@@H](CCCNC(=N)N)C(=O)N[C@@H](CCCNC(=N)N)C(=O)N[C@@H](CCCNC(=N)N)C(=O)N[C@@H](CCCNC(=N)N)C(=O)N[C@@H](CCCNC(=N)N)C(=O)N[C@@H](CCC(N)=O)C(=O)N[C@@H](CCCNC(=N)N)C(=O)N[C@@H](CCCNC(=N)N)C(=O)N[C@@H](CCCNC(=N)N)C(N)=O)NC(=O)[C@H](Cc2c[nH]c3ccccc23)NC(=O)[C@H](CCCNC(=N)N)NC(=O)[C@@H](Cc2ccccc2)NC(=O)[C@H](Cc2c[nH]cn2)NC(=O)[C@@H](C)NC1=O | hMC1-R (Homo sapiens) | nM | 0.481

Measured EC50 for this entry `CCCC[C@H](NC(C)=O)C(=O)N[C@H]1CSSC[C@@H](C(=O)NCCC(=O)N[C@@H](CCCNC(=N)N)C(=O)N[C@@H](CCCCN)C(=O)N[C@@H](CCCNC(=N)N)C(=O)N[C@@H](CCCNC(=N)N)C(=O)N[C@@H](CCCNC(=N)N)C(=O)N[C@@H](CCC(N)=O)C(=O)N[C@@H](CCCNC(=N)N)C(=O)N[C@@H](CCCNC(=N)N)C(=O)N[C@@H](CCCNC(=N)N)C(N)=O)NC(=O)[C@H](Cc2c[nH]c3ccccc23)NC(=O)[C@H](CCCNC(=N)N)NC(=O)[C@@H](Cc2ccccc2)NC(=O)[C@H](Cc2c[nH]cn2)NC(=O)[C@@H](C)NC1=O` on hMC1-R (Homo sapiens): 2.06

* * *

Measured pKi accompanies every entry in the list below.
target.desc: hMC4-R (Homo sapiens, UniProt P32245)
Construct: expressed in transfected cells; host or cells: CHO-K1
Sequence (P32245 whole entry): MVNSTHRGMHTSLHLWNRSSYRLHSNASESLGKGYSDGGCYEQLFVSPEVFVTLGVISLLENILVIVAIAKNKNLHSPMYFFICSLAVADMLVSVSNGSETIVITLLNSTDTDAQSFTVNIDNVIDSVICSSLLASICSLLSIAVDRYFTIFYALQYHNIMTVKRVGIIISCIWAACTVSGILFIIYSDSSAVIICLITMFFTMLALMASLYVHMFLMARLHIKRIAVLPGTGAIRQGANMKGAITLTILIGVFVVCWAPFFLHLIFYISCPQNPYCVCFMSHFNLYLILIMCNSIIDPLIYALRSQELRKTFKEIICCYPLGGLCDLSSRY
assay.overview: Radioligand binding assay, hMC4-R
Where a SMILES comes first, the peptide text is derived from it. Bridges are numbered along the chain shown (N, C = ends). [ ]: non-standard residue; d: D form. 2Nal = N[C@@H](Cc1ccc2ccccc2c1)C(=O)O; d2Nal = N[C@H](Cc1ccc2ccccc2c1)C(=O)O; Aib = CC(C)(N)C(=O)O
Remember, pKi is on a log scale: it is -log10 of the molar concentration.

compound | pKi
CC(=O)N[C@H]1CSSC[C@@H](C(=O)N2CCC[C@H]2C(=O)N2CCC[C@H]2C(=O)N[C@@H](CCCCN)C(=O)N[C@@H](CC(=O)O)C(N)=O)NC(=O)C(C)(C)NC(=O)[C@H](Cc2ccc3ccccc3c2)NC(=O)[C@H](CCCNC(=N)N)NC(=O)[C@@H](Cc2ccc3ccccc3c2)NC(=O)[C@H](Cc2c[nH]cn2)NC(=O)[C@H](CCC(=O)O)NC1=O (Ac-CEH[d2Nal]R[2Nal][Aib]CPPKD-NH2; disulfide 1-8) | 8.23

Please fill in: pKi reported for `CCCC[C@H](NC(C)=O)C(=O)N[C@H]1CSSC[C@@H](C(=O)NCCC(=O)NCC(=O)N[C@@H](CCCNC(=N)N)C(=O)N[C@@H](CCCCN)C(=O)N[C@@H](CCCNC(=N)N)C(=O)N[C@@H](CCCNC(=N)N)C(=O)N[C@@H](CCCNC(=N)N)C(=O)N[C@@H](CCC(N)=O)C(=O)N[C@@H](CCCNC(=N)N)C(=O)N[C@@H](CCCNC(=N)N)C(=O)N[C@@H](CCCNC(=N)N)C(N)=O)NC(=O)[C@H](Cc2c[nH]c3ccccc23)NC(=O)[C@H](CCCNC(=N)N)NC(=O)[C@@H](Cc2ccccc2)NC(=O)[C@H](Cc2c[nH]cn2)NC(=O)[C@@H](C)NC1=O` = 9.53

pKi reading for `CCCC[C@H](NC(C)=O)C(=O)N[C@H]1CSSC[C@@H](C(=O)NCCC(=O)N[C@@H](CCCNC(=N)N)C(=O)N[C@@H](CCCCN)C(=O)N[C@@H](CCCNC(=N)N)C(=O)N[C@@H](CCCNC(=N)N)C(=O)N[C@@H](CCCNC(=N)N)C(=O)N[C@@H](CCC(N)=O)C(=O)N[C@@H](CCCNC(=N)N)C(=O)N[C@@H](CCCNC(=N)N)C(=O)N[C@@H](CCCNC(=N)N)C(N)=O)NC(=O)[C@H](Cc2c[nH]c3ccccc23)NC(=O)[C@H](CCCNC(=N)N)NC(=O)[C@@H](Cc2ccccc2)NC(=O)[C@H](Cc2c[nH]cn2)NC(=O)[C@@H](C)NC1=O` : 9.33

* * *

target.desc: hMC5-R (Homo sapiens)
Construct: expressed in transfected cells; host or cells: CHO-K1
Sequence (P33032 whole entry): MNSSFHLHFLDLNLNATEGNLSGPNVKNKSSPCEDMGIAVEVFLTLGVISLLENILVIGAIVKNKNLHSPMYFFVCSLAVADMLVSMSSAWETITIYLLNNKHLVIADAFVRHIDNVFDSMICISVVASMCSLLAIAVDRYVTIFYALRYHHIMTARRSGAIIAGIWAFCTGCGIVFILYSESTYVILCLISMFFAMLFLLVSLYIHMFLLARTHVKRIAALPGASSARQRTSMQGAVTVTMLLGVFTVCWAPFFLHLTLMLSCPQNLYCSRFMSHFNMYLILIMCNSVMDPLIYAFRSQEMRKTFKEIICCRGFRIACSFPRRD
assay.overview: cyclic AMP bioassay, hMC5-R
Assay type: cell-based
experimental.readout: pEC50
Bear in mind: pEC50 is minus log10 of a mol/L concentration; give just that figure.

Form field pEC50, entry `CCCC[C@H](NC(C)=O)C(=O)N[C@H]1CSSC[C@@H](C(=O)NCCC(=O)NCC(=O)N[C@@H](CCCNC(=N)N)C(=O)N[C@@H](CCCCN)C(=O)N[C@@H](CCCNC(=N)N)C(=O)N[C@@H](CCCNC(=N)N)C(=O)N[C@@H](CCCNC(=N)N)C(=O)N[C@@H](CCC(N)=O)C(=O)N[C@@H](CCCNC(=N)N)C(=O)N[C@@H](CCCNC(=N)N)C(=O)N[C@@H](CCCNC(=N)N)C(N)=O)NC(=O)[C@H](Cc2c[nH]c3ccccc23)NC(=O)[C@H](CCCNC(=N)N)NC(=O)[C@@H](Cc2ccccc2)NC(=O)[C@H](Cc2c[nH]cn2)NC(=O)[C@@H](C)NC1=O` : 6.25
